Value source: ChEMBL document CHEMBL4052623

Target: UniProtKB P20618
Sequence (whole entry): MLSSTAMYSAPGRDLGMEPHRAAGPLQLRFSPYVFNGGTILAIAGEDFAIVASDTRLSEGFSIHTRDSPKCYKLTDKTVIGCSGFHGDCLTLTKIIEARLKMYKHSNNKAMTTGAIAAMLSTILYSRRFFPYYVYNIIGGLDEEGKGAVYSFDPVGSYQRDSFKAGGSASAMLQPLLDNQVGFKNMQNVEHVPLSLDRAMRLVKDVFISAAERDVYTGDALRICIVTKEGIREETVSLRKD
Assay: Inhibition of caspase like activity of 26S proteasome beta 1 subunit in human U266 cells assessed as residual activity using […] as substrate at 10 uM preincubated for 1 hr followed by substrate addition and measured after 4 hrs by fluorescence assay relative to control
Assay type: cell-based
I'd appreciate it if you could supply Activity values for the items below.
Numbers only, in %.

>>> print(df.to_string())
                                 smiles_str  measured_parameter  unit  observed_measurement
0  CC(C)C[C@H](NC(=O)c1cc(Cl)ccc1O)C(=O)N[C@@H](Cc1ccccc1)C(=O)N[C@H](C=O)Cc1ccccc1            Activity     %                  73.5

Field: Activity. Fill in for each record below.
1. CC(C)C[C@@H](C=O)NC(=O)[C@H](CC(C)C)NC(=O)[C@H](CC(C)C)NC(=O)c1cc(Cl)ccc1OCc1ccccc1
2. CC(C)C[C@H](NC(=O)c1cc(Cl)ccc1OCc1ccccc1)C(=O)N[C@H](C=O)Cc1ccccc1
3. CC(C)C[C@@H](C=O)NC(=O)[C@H](Cc1ccccc1)NC(=O)[C@H](CC(C)C)NC(=O)c1cc(Cl)ccc1OCc1ccccc1

Resp:
1. 34.6
2. 67.8
3. 40.2

----------
Molecular target: Proteasome Macropain subunit MB1 (Homo sapiens)
Sequence (whole entry): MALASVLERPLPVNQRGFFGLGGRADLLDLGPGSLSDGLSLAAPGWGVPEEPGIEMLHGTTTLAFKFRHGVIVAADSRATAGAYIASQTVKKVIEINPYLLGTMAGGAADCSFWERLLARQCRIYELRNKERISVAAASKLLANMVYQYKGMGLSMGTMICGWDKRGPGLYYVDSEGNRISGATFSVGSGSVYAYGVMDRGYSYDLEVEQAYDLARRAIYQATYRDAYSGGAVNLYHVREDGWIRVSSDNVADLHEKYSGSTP
Test: Inhibition of chymotrypsin like activity of 26S proteasome beta 5 subunit in human U266 cells assessed as residual activity using N-Suc-LLVY-AMC as substrate at 10 uM preincubated for 1 hr followed by substrate addition and measured after 4 hrs by fluorescence assay relative to control
Format: cell-based
measured-parameter: Activity (%)
One number for each entry, in %.

In [3]: df
Out[3]:
                                   compound  observed_measurement
0  CC(C)C[C@@H](C=O)NC(=O)[C@H](Cc1ccccc1)NC(=O)[C@H](CC(C)C)NC(=O)c1cc(Cl)ccc1OCc1ccccc1                  10.6

Field: Activity. Fill in for each record below.
1. CC(C)CC(C=O)NC(=O)[C@H](Cc1ccccc1)NC(=O)c1cc(Cl)ccc1OCc1ccccc1 (stereo partly drawn)
2. CC(C)C[C@H](NC(=O)[C@H](Cc1ccccc1)NC(=O)c1cnccn1)B(O)O
3. CC(C)C[C@@H](C=O)NC(=O)[C@H](Cc1ccccc1)NC(=O)[C@H](CC(C)C)NC(=O)c1cc(Cl)ccc1O

Resp:
[95, 1.5, 27.9]

Field: Activity. Fill in for each record below.
1. CC(C)C[C@@H](C=O)NC(=O)[C@H](CC(C)C)NC(=O)[C@H](CC(C)C)NC(=O)c1cc(Cl)ccc1OCc1ccccc1
2. CC(C)C[C@@H](C=O)NC(=O)c1cc(Cl)ccc1OCc1ccccc1
3. CC(C)C[C@H](NC(=O)c1cc(Cl)ccc1OCc1ccccc1)C(=O)N[C@@H](Cc1ccccc1)C(=O)NC(C=O)Cc1ccccc1 (stereo partly drawn)

Resp:
[11.8, 68.8, 29.1]
